biological target: human ferroportin (Homo sapiens); assay type: cell-based; conditions: Hepcidin analog peptides
Sequence (Q9NP59 whole entry): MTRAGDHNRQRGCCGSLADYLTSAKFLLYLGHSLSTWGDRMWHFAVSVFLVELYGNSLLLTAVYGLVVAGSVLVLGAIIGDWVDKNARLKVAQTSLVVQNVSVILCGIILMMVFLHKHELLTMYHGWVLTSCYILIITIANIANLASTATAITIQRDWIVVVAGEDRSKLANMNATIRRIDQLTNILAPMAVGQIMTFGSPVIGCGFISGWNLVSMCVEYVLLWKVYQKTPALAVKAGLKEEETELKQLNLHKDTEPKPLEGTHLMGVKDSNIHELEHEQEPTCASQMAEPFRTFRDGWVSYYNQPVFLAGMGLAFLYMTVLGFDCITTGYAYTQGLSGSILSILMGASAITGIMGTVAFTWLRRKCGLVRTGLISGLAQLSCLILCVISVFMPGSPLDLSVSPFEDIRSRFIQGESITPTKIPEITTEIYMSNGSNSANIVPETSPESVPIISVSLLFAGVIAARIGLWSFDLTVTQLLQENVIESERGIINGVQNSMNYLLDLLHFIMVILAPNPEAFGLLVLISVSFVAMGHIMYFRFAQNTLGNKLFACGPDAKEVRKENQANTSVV
Quantity Name: Potency EC50 (nM)

Known Potency EC50 (nM) results, listed for orientation:
- Substance: "H-THFPCIIFGPRSKGWVCK-NH2 (cysteine pairing not given here) [Compound 97]"
  Subject Of Test: "human ferroportin (Homo sapiens)"
  Measurement: "Inactive"
- Substance: "H-DTHFGCIIFGPRSKGWVCK-NH2 (cysteine pairing not given here) [Compound 123]"
  Subject Of Test: "human ferroportin (Homo sapiens)"
  Measurement: "Inactive"
- Substance: "Hy-DTHF-[β-Ala]-CIIFGPRSKGWVCK-NH2 [Compound 129]"
  Subject Of Test: "human ferroportin (Homo sapiens)"
  Measurement: "Inactive"
- Substance: "H-DTHFKCIIFGPRSKGWVCK-NH2 (cysteine pairing not given here) [Compound 131]"
  Subject Of Test: "human ferroportin (Homo sapiens)"
  Measurement: "Inactive"
- Substance: "Isovaleric acid-HFPCIIFGPRSKGWVCK-NH2 [Compound 100]"
  Subject Of Test: "human ferroportin (Homo sapiens)"
  Measurement: "Inactive"

Consider now this further substance.
q: Fill in: Potency EC50 (nM) of H-DTHCPIAIF-NH2 [Compound 277] is ___
a: Inactive

All values here come from patent US9822157B2.
